Target: PKA (Homo sapiens)
Test: PKA inhibition assay
Format: biochemical
Conditions: 0.1 μM compound
Source text: Methods for obtaining A-type and P-type mediators are set out in Caro et al, 1997, and in WO98/11116 and WO98/11117. Protocols for determining characteristic IPG biological activities such as PDH activation, PKA inhibition, acetylCoA activation, fructose-1,6-bis-phosphatase activity and lipogenesis are well known in the art or provided in the experimental section below. […]
MEASUREMENT_KIND: PKA inhibition
Kindly format the answer as number then unit.

Q) Give reported PKA inhibition for NC1C(OC2C(O)C(O)C(O)C(O)C2O)OC(CO)C(O)C1O (centres unmarked) [RGL1018] (PKA (Homo sapiens))
A) 19%

Q) Give reported PKA inhibition for COC1C(O)C(O)C(OC2OC(CO)C(O)C(O)C2N)C(O)C1O (centres unmarked) [RGL1015] (PKA (Homo sapiens))
A) 14%

Q) Give reported PKA inhibition for N[C@H]1[C@@H](O[C@H]2[C@H](O)[C@H](O)[C@H](O)[C@@H](O)[C@@H]2O)O[C@H](CO)[C@@H](OP(=O)(O)O)[C@@H]1O [RGL1027] (PKA (Homo sapiens))
A) 18%

Q) Give reported PKA inhibition for CO[C@H]1[C@H](O)[C@@H](O)[C@@H](O[C@H]2O[C@H](CO)[C@@H](O)[C@H](O)[C@H]2N)[C@H](O)[C@@H]1O [RGL1024] (PKA (Homo sapiens))
A) 17%

Q) Give reported PKA inhibition for N[C@H]1[C@@H](O[C@H]2[C@H](O)[C@H](O)[C@H](O)[C@@H](O)[C@@H]2O)O[C@H](CO)[C@@H](O)[C@@H]1OP(=O)(O)O [RGL1029] (PKA (Homo sapiens))
A) 59%
